Where do the numbers come from? From PubChem BioAssay.

- Assay remarks: reduced viability of SK-BR-3 breast cancer cells – cell-based, 24 h, human, pilot screen (AID 572);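 also: compound exposure lasted between 18 and 24 h rather than exactly 24 h; 100% = carrier-treated control wells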
- Test conditions: SK-BR-3 viability, CellTiter-Glo luminescence, at 10 µM, stronger effect = lower value
The source made the active and inactive calls.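 The calls were made as follows: active = viability at or below 10% of carrier control in both of two separate runs; inconclusive = viability at or below 10% in only one of the two runs; inactive = the rest.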
Give viability for every item shown.

CCCc1cc(=O)oc2cc(C)cc(OC(=O)c3ccco3)c12 | 97% (inactive)
C=CCn1c(=O)n(CCOC)c(=O)c2sc3ccccc3c21 | 85% (inactive)
CCN(CC)C(=O)Oc1ccc(NC(C)=O)cc1 | 88.5% (inactive)

Below are some molecules; for each one, tell me its viability.
1. Cc1cccc(C2CC(c3ccccc3)Nc3nc(N)nn32)c1 (stereo unspecified)
2. COc1ccc(C2CC(c3cccs3)n3nc(N)nc3N2)cc1 (stereo unspecified)
3. COc1ccc(N2CCN(CCCNS(=O)(=O)c3c(C)noc3/C=C/N(C)C)CC2)cc1

92% (inactive)
113% (inactive)
99.5% (inactive)

---

- Assay remarks: reduced viability of SK-BR-3 breast cancer cells – cell-based, 24 h, human, pilot screen (AID 572);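 also: compound exposure lasted between 18 and 24 h rather than exactly 24 h; 100% = carrier-treated control wells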
- Test conditions: SK-BR-3 viability, CellTiter-Glo luminescence, at 10 µM, stronger effect = lower value
Metric name: viability (%)
One number for each entry, in %.

O=C(c1ccc(=O)[nH]c1)N(Cc1ccco1)C1(C(=O)NC2CCCC2)CCCCC1 | 102

Below are some compounds; for each one, tell me its viability.
1. CCOC(=O)N1CCC(NC(=O)C2CCN(S(=O)(=O)c3cccc4cccnc34)CC2)CC1
2. COc1ccc(-n2ncc3c(N4CCC(C)CC4)ncnc32)cc1
3. COc1ccc(C2C(C(C)=O)=C(C)N=c3s/c(=C/c4ccc5c(c4)OCO5)c(=O)n32)cc1 (stereo not given)

[90.5, 100, 85]

Tell me its viability given Cc1noc(C(=O)Nc2ccc3c(c2)OCO3)c1Cl as the entry.
84.5

---

Give viability for every item shown.
- Assay remarks: H69AR cell proliferation blockers – human, duplicate replicates, primary screen (AID 580);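 also: 100% = mean luminescence of untreated wells and 0% = no signal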
- Test conditions: H69AR lung tumor cells viability, ATP luminescence, 72 h; at 10 µM; stronger effect = lower value
Numbers only, in %.

# example entries with known answers
COc1ccc(NC(=O)c2cnc3n(c2=O)CCS3)cc1OC | 95.7
O=C(NC1CCCCCC1)c1c(F)c(F)c(F)c(F)c1F | 101
CCOC(=O)N1CCC(NC(=O)Cn2c3c(c(-c4ccccc4Cl)cc2=O)CCC3)CC1 | 89.7
O=C(NCCC1=CCCCC1)C1CCN(S(=O)(=O)c2cccc3cccnc23)CC1 | 97
Cc1cc(=O)oc2cc(OCC#N)ccc12 | 99.4

Below are some compounds; for each one, tell me its viability.
1. O=C(c1ccc(Br)cc1)N1CCN(S(=O)(=O)c2ccccc2)CC1
2. C=CCSc1nc2sc(C)c(C)c2c(=O)[nH]1
3. CC(Sc1n[nH]c(=O)[nH]c1=O)C(=O)OCc1ccccc1 (stereo not given)
4. COC1CCCCC1Nc1cccc(SC)c1 (stereo not given)
5. Cc1nnc(SCC(=O)NCc2ccccc2)s1
6. S=c1[nH]nc(-c2ccccc2)n1C1C=CCCC1 (stereo not given)
7. CCOC(=O)N1CCN(C(=O)c2c(-c3ccccc3)noc2C)CC1
8. COc1ccc(-c2nnc(SCC(=O)N3CCOCC3)o2)cc1OC

[92.6, 90.7, 99.9, 88.3, 101, 85, 95.2, 96.1]

Below are some compounds; for each one, tell me its viability.
1. COC(=O)Cn1c(CN2CCOCC2)nc2c1c(=O)n(C)c(=O)n2C
2. FC(F)(F)c1cc(-c2ccco2)nc(NCc2ccco2)n1

99.8
62.2

Below are some compounds; for each one, tell me its viability.
1. CCN(CC)CCn1c(=N)n(CCO)c2ccccc21
2. COc1ccc(OC)c(C2C(C(=O)Nc3ccc(F)cc3)=C(C)Nc3nc(CCCO)nn32)c1 (stereo not given)
3. CC(C)(O)C#Cc1ccc(C(=O)N2CCN(C(=O)c3ccco3)CC2)cc1
4. CC(C)Sc1nc2c(c(=O)n1-c1ccc(F)cc1)SCC2
5. CCCCNC(=O)Nc1ccnn1C1CCCCC1
6. c1ccn2c(SCc3ccc4c(c3)OCCO4)nnc2c1

[101, 101, 96.9, 88.5, 100, 92.1]

Below are some compounds; for each one, tell me its viability.
1. COCCCNC(=O)CC1Oc2ccccc2NC1=O (stereo not given)
2. CCCc1cc(C(=O)Nc2sc(C)c(C)c2C(=O)OCC)no1
3. CCOc1cc(C2CC(=O)N3CN(C4CCCCC4)CSC3=C2C#N)ccc1O (stereo not given)

83.3
92.6
87.3

Tell me its viability given CCN(CC)C(=O)Oc1ccccc1NC(C)=O as the entry.
90.5

---

- Assay remarks: MRP1 drug-resistance reversers in H69AR cells – cell-based, doxorubicin co-treatment, pilot screen (AID 601)
- Test conditions: H69AR cells, CellTiter-Glo, 72 h; compound alone cytotoxicity; at 10 µM
Give viability for every item shown.
Give bare numbers, in %.

# example entries with known answers
COc1cc2c(cc1OC)C(C)N(C(=O)Cn1ncc3c1-c1ccccc1OC3)CC2 (configuration not stated) | 87.2
COc1ccccc1NC(=O)CSc1nnc(Cc2cccn2C)n1-c1ccc(F)cc1 | 71.8
NC(=O)c1cccc2c1C(=O)N(C1CCCCC1)C2 | 88.9
Cc1cccc(N2CCN(C(=O)Cn3nc(Cc4ccncc4)c4ccccc4c3=O)CC2)c1C | 75.9
O=C(NCCSc1c[nH]c2ccccc12)c1ccco1 | 65.1
COc1ccc(OC)c(NC(=O)c2cn(C)c(=O)c3cc(OC)c(OC)cc23)c1 | 93.8
O=C(CCCCCn1c(=O)[nH]c2ccsc2c1=O)N1CCCCC1 | 95
COc1ccc(C2CC(c3ccc(C)cc3)Nc3ncnn32)cc1 (configuration not stated) | 101

Below are some molecules; for each one, tell me its viability.
1. CCn1cc(SCC(=O)NCC2CCCO2)c2ccccc21 (configuration not stated)
2. Cc1ccc(CSc2nc3c(c(=O)[nH]2)CCC3)cc1
3. COc1cccc(C2C(C(=O)c3cccs3)=C(O)C(=O)N2CCCn2ccnc2)c1OC (configuration not stated)

85.5
93.1
109

Below are some molecules; for each one, tell me its viability.
1. Cc1ccc2c(c1)-c1c(cnn1CC(=O)NC(C)CCc1ccco1)CO2 (configuration not stated)
2. CN(Cc1ccccc1)S(=O)(=O)c1ccc(S(=O)(=O)N2CCN(CCC#N)CC2)cc1
3. C=CCn1c(COc2ccc(CC)cc2)nnc1SC/C(O)=C(\C#N)c1nc2ccccc2[nH]1
4. CC(c1ccco1)N(C(=O)c1ccc(S(=O)(=O)N2CCCCC2)cc1)c1ccccn1 (configuration not stated)

1. 85.9
2. 77.2
3. 106
4. 86

Below are some molecules; for each one, tell me its viability.
1. COc1ccc(-n2c(Cc3cccn3C)nnc2SCC(=O)Nc2ccc(Cl)cc2)cc1
2. COc1ccc(N2CCN(C(=O)C(C)(C)Oc3ccc(Cl)cc3)CC2)cc1
3. CCOc1ccccc1C(=O)Nc1cc(=O)n(C)c(=O)n1C
4. COc1ccccc1Oc1ccc(S(=O)(=O)N2CCOCC2)cc1S(=O)(=O)N1CCOCC1
5. COc1cc2c(cc1OC)C(c1ccc(C)o1)CC(=O)N2 (configuration not stated)
6. CCOC(=O)N1CCN(C(=O)c2ccc(CS(=O)(=O)c3c(Cl)cccc3Cl)o2)CC1
7. Clc1cccc(N2CCN(Cc3nc(-c4ccccc4)no3)CC2)c1

1: 70.7; 2: 68.4; 3: 88.1; 4: 83.6; 5: 89.4; 6: 96.5; 7: 91.3

---

- Assay remarks: yeast transport mutant growth inhibition pilot in 384-well plates, post-Golgi transport modulator project (AID 636)
- Test conditions: absorbance 615 nm, about 18 h, stronger effect = higher value
Metric name: inhibition (%)
Answers are plain numbers, in %.

COC(=O)CSc1nc2nc(C)cc(C)n2n1 | -3.73
CC1CC(NC(=O)c2cnc3n(c2=O)CCS3)CC(C)(C)C1 (stereo unspecified) | -4.13
CCOc1ccc(NC(=O)CSc2nnc(COc3c(C)cccc3C)o2)cc1 | -4.93
CC(=O)c1ccc(NC(=O)C2CCN(S(=O)(=O)c3cccc4cccnc34)CC2)cc1 | -2.67
CN(C)c1ccc(C(=O)Nc2nnc(-c3ccc(Cl)cc3)o2)cc1 | 29.9
N#Cc1cc2c(nc1SCC(=O)N1CCCCC1)CCCC2 | 3.51

Below are some molecules; for each one, tell me its inhibition.
1. CSc1cccc(NC(=O)C2CCN(S(=O)(=O)c3ccc(F)cc3)CC2)c1
2. COc1ccccc1OCC(=O)N1CCN(c2ccccc2OC)CC1
3. Cc1ccccc1CSc1nnc(C)c(=O)[nH]1
4. CCN(CC)S(=O)(=O)c1ccc2oc(C(=O)N3CCOCC3)c(C)c2c1

1. -7.57
2. 3.78
3. -3.2
4. 0.67

Tell me its inhibition given CCN1CCN(C(=O)Cn2ncc3ccsc3c2=O)CC1 as the entry.
-3.73
